biological target: ΔF508-CFTR (Homo sapiens, UniProt P13569, DEL508-508); construct: host or cells: CFBE41o-, doxycycline-inducible; assay: CFTR cell surface levels using HRP-tagged ΔF508-CFTR expressing CFBE cells, in the presence of a co-corrector; assay type: cell-based; conditions: HRP-tagged ΔF508-CFTR expressing CFBE cells, in the presence of 3 μM co-corrector; read-out: EC50
Sequence (P13569 with tags, fused parts or gaps DEL508-508): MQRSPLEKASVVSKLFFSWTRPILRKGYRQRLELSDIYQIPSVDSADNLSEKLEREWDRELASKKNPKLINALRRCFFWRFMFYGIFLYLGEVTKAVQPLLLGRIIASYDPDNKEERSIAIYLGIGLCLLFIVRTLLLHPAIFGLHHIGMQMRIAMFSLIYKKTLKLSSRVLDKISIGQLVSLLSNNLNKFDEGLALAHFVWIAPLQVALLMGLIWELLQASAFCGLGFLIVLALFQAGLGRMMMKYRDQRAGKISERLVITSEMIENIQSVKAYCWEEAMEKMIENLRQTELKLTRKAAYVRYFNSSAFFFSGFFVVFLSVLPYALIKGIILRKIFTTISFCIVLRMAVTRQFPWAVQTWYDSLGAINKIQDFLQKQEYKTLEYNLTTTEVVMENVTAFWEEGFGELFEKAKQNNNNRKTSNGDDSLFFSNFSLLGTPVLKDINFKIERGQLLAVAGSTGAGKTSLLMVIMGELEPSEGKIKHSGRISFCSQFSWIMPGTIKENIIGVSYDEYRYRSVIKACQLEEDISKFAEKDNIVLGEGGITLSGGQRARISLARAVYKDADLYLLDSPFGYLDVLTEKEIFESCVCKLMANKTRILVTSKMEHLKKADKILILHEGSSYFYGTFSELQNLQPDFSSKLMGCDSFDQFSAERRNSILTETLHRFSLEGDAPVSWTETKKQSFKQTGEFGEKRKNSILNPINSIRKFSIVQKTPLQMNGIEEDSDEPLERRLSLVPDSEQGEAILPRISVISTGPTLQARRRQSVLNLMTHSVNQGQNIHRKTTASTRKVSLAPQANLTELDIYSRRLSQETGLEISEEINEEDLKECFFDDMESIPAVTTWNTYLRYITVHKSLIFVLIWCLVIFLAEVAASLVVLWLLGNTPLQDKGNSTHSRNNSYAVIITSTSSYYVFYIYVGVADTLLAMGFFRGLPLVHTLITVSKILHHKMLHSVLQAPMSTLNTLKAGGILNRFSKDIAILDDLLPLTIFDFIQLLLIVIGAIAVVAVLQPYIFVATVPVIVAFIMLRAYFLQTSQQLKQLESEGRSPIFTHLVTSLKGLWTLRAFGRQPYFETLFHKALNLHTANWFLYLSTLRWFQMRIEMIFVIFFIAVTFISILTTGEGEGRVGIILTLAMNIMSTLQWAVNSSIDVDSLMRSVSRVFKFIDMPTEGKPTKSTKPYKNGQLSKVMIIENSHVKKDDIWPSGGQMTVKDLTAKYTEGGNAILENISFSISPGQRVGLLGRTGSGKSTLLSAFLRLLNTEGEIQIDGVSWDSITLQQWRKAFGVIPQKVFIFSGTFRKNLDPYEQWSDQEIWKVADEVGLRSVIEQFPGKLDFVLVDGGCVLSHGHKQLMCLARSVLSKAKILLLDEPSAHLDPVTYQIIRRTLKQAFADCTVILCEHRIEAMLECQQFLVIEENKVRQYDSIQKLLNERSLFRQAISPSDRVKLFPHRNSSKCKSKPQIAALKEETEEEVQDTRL
attribute.measured: log10 EC50 (log10 of the value in nM)
Values are log10 of EC50 in nM.

Answered examples (5):
# compound, target.or.system, numeric.result
records = [
    ("O=C(O)c1cc(N2C[C@@H](F)C[C@@H]2CO)c2c(C3CCC3)nn(-c3ccccc3)c2n1 [compound 514]", "ΔF508-CFTR (Homo sapiens, UniProt P13569, DEL508-508)", 3.52),
    ("COCC(COC)Oc1cc(C(=O)O)nc2c1c(C1CCC1)nn2-c1ccccc1 [compound 491]", "ΔF508-CFTR (Homo sapiens, UniProt P13569, DEL508-508)", 2.98),
    ("CC(C)c1nn(-c2ccc(F)cc2)c2nc(C(=O)O)cc(N3CCC(N4CCOCC4)CC3)c12 [compound 756]", "ΔF508-CFTR (Homo sapiens, UniProt P13569, DEL508-508)", 2.60),
    ("Cc1cccc(-n2nc(C(C)C)c3c(N4CCC(CF)CC4)cc(C(=O)O)nc32)c1 [compound 348]", "ΔF508-CFTR (Homo sapiens, UniProt P13569, DEL508-508)", 2.57),
    ("O=C(O)c1cc(OCC2CCC(F)(F)CC2)c2c(C3CCC3)nn(-c3ccccc3)c2n1 [compound 616]", "ΔF508-CFTR (Homo sapiens, UniProt P13569, DEL508-508)", 1.92),
]

What measured log10 EC50 goes with O=C(O)c1cc(N2CCC(CN3CC(F)C3)CC2)c2c(C3CCC3)nn(-c3ccccc3)c2n1 [compound 827] ?
1.97

Also CCOCCN1CCN(C2CCN(c3cc(C(=O)O)nc4c3c(C3CCC3)nn4-c3ccccc3)CC2)CC1 [compound 729] ?
3.22

And O=C(O)c1cc(N2CC[C@H](O)[C@H](F)C2)c2c(C3CCC3)nn(-c3ccccc3)c2n1 [compound 509] ?
3.22
